Counter-ions that a name gives are not always drawn.
A short record of MIC observed with E. coli (CMCC44102) follows.

C=C1CC[C@]2(C(=O)O)CC[C@]3(C)C(=CCC4[C@@]5(C)C[C@@H](O)[C@H](O)C(C)(C)C5CC[C@]43C)C2C1 (some centres unmarked) : > 200 µg/mL
C=C1CC[C@]2(C(=O)O)CC[C@]3(C)C(=CCC4[C@@]5(C)CC[C@H](O)C(C)(C)C5CC[C@]43C)C2C1 (some centres unmarked) : > 200 µg/mL

QUERY: Lab request: please report MIC under test system E. coli (CMCC44102) for C=C1CC[C@]2(C(=O)O)CC[C@]3(C)C(=CCC4[C@@]5(C)CC[C@@H](O)[C@](C)(CO)C5CC[C@]43C)C2C1 (some centres unmarked)
RESULT: > 200 µg/mL

QUERY: Lab request: please report MIC under test system E. coli (CMCC44102) for NC[C@H]1O[C@H](O[C@H]2[C@H](O)[C@@H](O[C@H]3O[C@H](CO)[C@@H](O)[C@H](N)[C@H]3O)[C@H](N)C[C@@H]2N)[C@H](O)[C@@H](O)[C@@H]1O [K, kanamycin sulfate, reference compound]
RESULT: 3.9 µg/mL

QUERY: Lab request: please report MIC under test system E. coli (CMCC44102) for CC1=C(C(=O)O)N2C(=O)[C@@H](NC(=O)[C@H](N)C3=CCC=CC3)[C@H]2SC1 [C, cefradine, reference compound]
RESULT: 12.5 µg/mL

QUERY: Lab request: please report MIC under test system E. coli (CMCC44102) for C=C1CC[C@]2(C(=O)O)CC[C@]3(C)C(=CCC4[C@@]5(C)CC[C@@H](O)C(C)(C)C5CC[C@]43C)C2C1 (some centres unmarked)
RESULT: > 200 µg/mL

QUERY: Lab request: please report MIC under test system E. coli (CMCC44102) for CC1(O)CCC2(C(=O)O)CCC3(C)C(=CCC4C5(C)CC(O)C(O)C(C)(C)C5CCC43C)C2C1 (centres unmarked)
RESULT: > 200 µg/mL

QUERY: Lab request: please report MIC under test system E. coli (CMCC44102) for C=C1CCC2(C(=O)O)CCC3(C)C(=CCC4C5(C)CC(O)C(O)C(C)(C=O)C5CCC43C)C2C1 (centres unmarked)
RESULT: > 200 µg/mL

---

PROTOCOL: Cytotoxicity, MTT method
APPLIED CONDITIONS: human, Cytotoxicity IC50, A549 cells, mean ± SD (n = 3)
OBSERVED PROPERTY: IC50 at 72 h

C=C1CC[C@]2(C(=O)O)CC[C@]3(C)C(=CCC4[C@@]5(C)CC[C@@H](O)[C@](C)(CO)C5CC[C@]43C)C2C1 (stereo partly drawn) : > 100 µM
C=C1CCC2(C(=O)O)CCC3(C)C(=CCC4C5(C)CC(O)C(O)C(C)(C=O)C5CCC43C)C2C1 (stereo not drawn) : > 100 µM

Next molecule, please.
QUERY: Quick one: IC50 at 72 h of CC1(O)CCC2(C(=O)O)CCC3(C)C(=CCC4C5(C)CC(O)C(O)C(C)(C)C5CCC43C)C2C1 (stereo not drawn) ?
RESULT: > 100 µM

---

PROTOCOL: Cytotoxicity, MTT method
APPLIED CONDITIONS: human, Cytotoxicity IC50, HeLa cells, mean ± SD (n = 3)
Property: IC50 at 72 h; scope: individual molecules

C=C1CCC2(C(=O)O)CCC3(C)C(=CCC4C5(C)CC(O)C(O)C(C)(C=O)C5CCC43C)C2C1 (stereo not drawn) : > 100 µM
C=C1CC[C@]2(C(=O)O)CC[C@]3(C)C(=CCC4[C@@]5(C)CC[C@@H](O)[C@](C)(CO)C5CC[C@]43C)C2C1 (stereo partly drawn) : > 100 µM

Next molecule, please.
QUERY: Quick one: IC50 at 72 h of CC1(O)CCC2(C(=O)O)CCC3(C)C(=CCC4C5(C)CC(O)C(O)C(C)(C)C5CCC43C)C2C1 (stereo not drawn) ?
RESULT: > 100 µM
